- ASSAYED_TARGET: Ubiquitin-conjugating enzyme E2 N (Homo sapiens) (UniProt P61088)
- Sequence (P61088 whole entry, looked up): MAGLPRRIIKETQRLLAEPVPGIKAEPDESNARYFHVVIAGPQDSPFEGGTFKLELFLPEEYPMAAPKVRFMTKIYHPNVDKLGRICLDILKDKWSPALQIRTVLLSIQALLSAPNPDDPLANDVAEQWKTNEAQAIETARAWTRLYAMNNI
- ASSAY_NOTES: UBC13 polyubiquitin chain formation inhibitors, primary screen, biochemical, TR-FRET, uHTS (AID 485273)
- CONDITION_LABEL: at 20 µM, stronger effect = higher value
Among all 330,000 compounds or so, about 1,500 (0.45%) were called active. This is one part of a sample in which actives are shown more often than they occur.
Reported inhibition values for the following compounds.
OBSERVATION_TYPE: inhibition (%)

COMPOUND: O=C(CSc1ccc2nnc(-c3ccccc3)n2n1)N1CCCc2ccccc21
ASSAY_VALUE: 8.9

COMPOUND: COc1ccc(C(=O)Nc2ccc(-n3nncc3C(C)(C)C)cc2)cc1
ASSAY_VALUE: -4.8

COMPOUND: COC(=O)c1ccc(CSc2ccc3nnc(-c4ccccc4)n3n2)o1
ASSAY_VALUE: 14.2

COMPOUND: O=C(/C=C/c1cccc([N+](=O)[O-])c1)OCC(=O)N1CCOCC1
ASSAY_VALUE: -13.5

COMPOUND: CC(=O)c1cccc(NC(=O)C2CCCN2S(=O)(=O)c2cccc3nsnc23)c1 (stereo not given)
ASSAY_VALUE: -4.7

====

- ASSAYED_TARGET: Ubiquitin-conjugating enzyme E2 N (Homo sapiens) (UniProt P61088)
- ASSAY_NOTES: UBC13 polyubiquitin chain formation inhibitors, primary screen, biochemical, TR-FRET, uHTS (AID 485273)
- CONDITION_LABEL: at 20 µM, stronger effect = higher value
Among all 330,000 compounds or so, about 1,500 (0.45%) were called active. The list comes from a sample in which actives are over-represented; it also holds close analogues and randomly drawn compounds.
OBSERVATION_TYPE: inhibition (%)

COMPOUND: Cc1cccc(N(C(=O)c2sc(C)nc2C)C(C(=O)NCC2CCCO2)c2ccccc2)c1 (centres undefined)
ASSAY_VALUE: 2.5
//
COMPOUND: COc1cc2c(cc1OC)CN(C(C)C(=O)Nc1cccc(S(=O)(=O)N3CCOCC3)c1)CC2 (centres undefined)
ASSAY_VALUE: -1.1
//
COMPOUND: Cc1ccc(N(C(=O)Cc2cccs2)C(C(=O)NCC2CCCO2)c2ccncc2)cc1 (centres undefined)
ASSAY_VALUE: -4.7
//
COMPOUND: COc1ccc2sc(N(CCCN(C)C)C(=O)c3ccc(S(=O)(=O)N(C)C4CCCCC4)cc3)nc2c1
ASSAY_VALUE: 15.5
//
COMPOUND: CN(C)CCCN(C(=O)c1ccc(S(=O)(=O)N2CCCCCC2)cc1)c1nc2cc3c(cc2s1)OCCO3
ASSAY_VALUE: 85.8
//
COMPOUND: CCOc1ccc(-n2c(N)c(C(=O)NCC3CCCO3)sc2=S)cc1 (centres undefined)
ASSAY_VALUE: 3.2
//
COMPOUND: CCOc1ccc(C(C(=O)NC2CCCC2)N(C(=O)c2snc(C(N)=O)c2N)C2CCCC2)cc1 (centres undefined)
ASSAY_VALUE: 5.2
//
COMPOUND: CN(C)CCN(C(=O)CN1C(=O)c2ccccc2C1=O)c1nc2cc3c(cc2s1)OCCO3
ASSAY_VALUE: 6.7
//
COMPOUND: O=C(NCC(=O)N(c1ccccc1)C(C(=O)NCC1CCCO1)c1ccccc1)c1cccs1 (centres undefined)
ASSAY_VALUE: -2.5
